List of IC50 values.
measuredTarget: CtermHisTag-mEGFR Triple Mutant - C797S, L858R, T790M (Homo sapiens, UniProt P00533, C797S/L858R/T790M)
Sequence (P00533 25-1210 T790M/C797S/L858R): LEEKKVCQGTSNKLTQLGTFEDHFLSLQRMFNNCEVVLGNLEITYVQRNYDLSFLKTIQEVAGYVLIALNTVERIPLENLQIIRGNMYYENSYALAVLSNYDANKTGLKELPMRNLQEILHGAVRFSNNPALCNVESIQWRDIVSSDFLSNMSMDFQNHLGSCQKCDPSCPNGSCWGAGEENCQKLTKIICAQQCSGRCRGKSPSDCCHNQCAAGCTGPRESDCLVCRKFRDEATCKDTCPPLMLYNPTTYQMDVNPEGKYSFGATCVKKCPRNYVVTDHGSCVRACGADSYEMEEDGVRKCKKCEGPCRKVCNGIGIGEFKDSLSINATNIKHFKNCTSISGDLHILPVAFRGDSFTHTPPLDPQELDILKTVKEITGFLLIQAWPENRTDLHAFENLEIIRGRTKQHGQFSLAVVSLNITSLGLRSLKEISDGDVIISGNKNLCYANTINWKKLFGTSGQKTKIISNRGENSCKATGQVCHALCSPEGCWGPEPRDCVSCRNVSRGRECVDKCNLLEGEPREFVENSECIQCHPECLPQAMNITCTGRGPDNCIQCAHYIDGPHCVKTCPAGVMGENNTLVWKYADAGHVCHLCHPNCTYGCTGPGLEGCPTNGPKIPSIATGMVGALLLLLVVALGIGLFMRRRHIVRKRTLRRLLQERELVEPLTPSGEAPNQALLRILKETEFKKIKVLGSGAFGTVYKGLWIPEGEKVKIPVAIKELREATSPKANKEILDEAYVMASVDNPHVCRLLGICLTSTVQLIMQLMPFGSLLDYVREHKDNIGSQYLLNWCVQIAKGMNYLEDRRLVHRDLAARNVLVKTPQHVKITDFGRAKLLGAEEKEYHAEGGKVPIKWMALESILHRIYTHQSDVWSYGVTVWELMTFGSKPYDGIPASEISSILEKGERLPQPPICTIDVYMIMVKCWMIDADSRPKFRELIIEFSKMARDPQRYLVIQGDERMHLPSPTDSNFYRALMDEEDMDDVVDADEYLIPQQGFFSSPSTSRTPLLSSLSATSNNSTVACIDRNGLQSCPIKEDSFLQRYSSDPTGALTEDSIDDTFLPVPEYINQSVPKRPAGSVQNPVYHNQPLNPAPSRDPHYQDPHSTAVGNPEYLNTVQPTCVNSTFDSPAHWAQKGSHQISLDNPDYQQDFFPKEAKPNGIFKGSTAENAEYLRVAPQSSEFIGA
assayDetails: TR-FRET probe displacement assay, EGFR triple mutant
Assay type: binding
recordedConditions: T790M 1.25 nM, probe 100 nM, 30 mins room temperature

Completed entries (count: 4):
compound: C#Cc1cc(N2C(=O)NC[C@H]2COC)nc2nc(Nc3ccc(N4CCN(C)CC4)cc3)ncc12
IC50: 0.02 to 0.1 µM
--
compound: C#Cc1cc(N2C(=O)N(C)CC23CCCC3)nc2nc(Nc3ccc(N4CCN(C5COC5)CC4)cc3)ncc12
IC50: 0.02 to 0.1 µM
--
compound: C#Cc1cc(NC(=O)NCc2ccno2)nc2nc(Nc3ccc(N4CCN(C)CC4)cc3)ncc12
IC50: 0.02 to 0.1 µM
--
compound: C#Cc1cc(NC(=O)OCc2ccccc2)nc2nc(Nc3ccc(N4CCN(C)CC4)cc3)ncc12
IC50: 1 to 50 µM

Recorded IC50 of C#Cc1cc(NC(=O)NC2CCCC2)nc2nc(Nc3ccccc3N3CCC(CS(C)(=O)=O)C3)ncc12 (stereo not shown) , please.
1 to 50 µM

----------
A set of compounds tested on CtermHisTag-mEGFR Wild type (Homo sapiens), with measured IC50:

# get_value(readout= IC50, system= CtermHisTag-mEGFR Wild type (Homo sapiens)) for C#Cc1cc(OC)nc2nc(Nc3ccc(N4CCN(C)CC4)c(NCc4ccn(C)n4)c3)ncc12
> 10000 nM

Query for CtermHisTag-mEGFR Wild type (Homo sapiens): what IC50 does the record show for C#Cc1cc(N2C(=O)OCC23CCCC3)nc2nc(Nc3ccc(N4CCN(C)CC4)cc3)ncc12 ?
< 1000 nM

Which IC50 is reported with CtermHisTag-mEGFR Wild type (Homo sapiens) for this entry: C#Cc1cc(N2C(=O)NCC23CCCC3)nc2nc(Nc3ccc(N(C)C(=O)CN(C)C)cc3)ncc12 ?
< 1000 nM

Give CtermHisTag-mEGFR Wild type (Homo sapiens) IC50 for C#Cc1cc(NC(=O)NC2CCCC2)nc2nc(Nc3cccc(N(C)[C@H]4CC[C@H](CS(C)(=O)=O)CC4)c3)ncc12
< 1000 nM

Please provide the recorded IC50 for C#Cc1cc(NC(=O)NC2CCCC2)nc2nc(Nc3ccc(OC4CN(C)C4)cc3)ncc12 , tested on CtermHisTag-mEGFR Wild type (Homo sapiens).
Sequence (P00533 25-1210): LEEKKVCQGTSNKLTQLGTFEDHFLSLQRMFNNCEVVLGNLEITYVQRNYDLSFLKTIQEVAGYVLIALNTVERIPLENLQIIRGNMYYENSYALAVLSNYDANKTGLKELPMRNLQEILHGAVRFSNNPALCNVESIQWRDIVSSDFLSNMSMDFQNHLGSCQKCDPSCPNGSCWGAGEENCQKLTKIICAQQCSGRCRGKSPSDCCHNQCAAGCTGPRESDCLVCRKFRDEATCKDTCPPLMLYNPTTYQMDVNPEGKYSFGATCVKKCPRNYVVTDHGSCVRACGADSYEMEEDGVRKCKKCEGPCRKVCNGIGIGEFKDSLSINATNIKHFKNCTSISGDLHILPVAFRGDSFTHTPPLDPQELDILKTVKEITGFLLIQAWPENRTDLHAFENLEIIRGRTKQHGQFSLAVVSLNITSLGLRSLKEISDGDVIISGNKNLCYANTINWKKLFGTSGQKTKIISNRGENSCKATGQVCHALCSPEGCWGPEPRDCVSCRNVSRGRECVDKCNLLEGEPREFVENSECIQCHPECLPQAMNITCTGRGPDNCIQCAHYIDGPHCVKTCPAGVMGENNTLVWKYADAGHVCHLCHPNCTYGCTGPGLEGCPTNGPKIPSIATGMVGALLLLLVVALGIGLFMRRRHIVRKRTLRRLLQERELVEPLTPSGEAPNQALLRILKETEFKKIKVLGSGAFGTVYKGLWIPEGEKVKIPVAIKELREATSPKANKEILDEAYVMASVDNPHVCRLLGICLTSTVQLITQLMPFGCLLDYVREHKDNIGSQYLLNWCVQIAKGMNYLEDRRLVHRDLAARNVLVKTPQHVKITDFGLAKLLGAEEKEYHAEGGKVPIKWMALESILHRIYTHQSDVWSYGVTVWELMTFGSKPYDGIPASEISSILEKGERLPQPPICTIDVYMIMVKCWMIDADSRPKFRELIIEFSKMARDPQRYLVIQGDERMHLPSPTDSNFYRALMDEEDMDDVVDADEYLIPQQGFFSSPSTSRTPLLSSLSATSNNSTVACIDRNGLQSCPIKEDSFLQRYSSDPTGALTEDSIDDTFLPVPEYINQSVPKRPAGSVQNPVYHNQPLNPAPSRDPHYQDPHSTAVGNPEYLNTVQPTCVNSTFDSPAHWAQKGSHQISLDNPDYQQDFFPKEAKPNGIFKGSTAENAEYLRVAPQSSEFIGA
< 1000 nM

Give IC50 (CtermHisTag-mEGFR Wild type (Homo sapiens)) of the following compound: C#Cc1cc(OC)nc2nc(Nc3cccc(CN(C)C(C)=O)c3)ncc12
> 10000 nM

State its IC50 on CtermHisTag-mEGFR Wild type (Homo sapiens): C#Cc1cc(NC(=O)NC2CCCC2)nc2nc(Nc3ccccc3N3CCC(CS(C)(=O)=O)C3)ncc12 (centres unmarked)
> 10000 nM

Lookup: IC50 / CtermHisTag-mEGFR Wild type (Homo sapiens) / C#Cc1cc(N2C(=O)OCC2CC2CCCC2)nc2nc(Nc3ccc(N4CCN(C)CC4)cc3)ncc12 (centres unmarked)
< 1000 nM

----------
measuredTarget: CtermHisTag-mEGFR Triple Mutant - C797S, L858R, T790M (Homo sapiens, UniProt P00533, C797S/L858R/T790M)
assayDetails: TR-FRET probe displacement assay, EGFR triple mutant
recordedConditions: T790M 1.25 nM, probe 100 nM, 30 mins room temperature
readoutType: IC50

Record excerpt, results attached:
compound: C#Cc1cc(NC(=O)NC2CCCC2)nc2nc(Nc3ccc(N4CCOCC4)cc3)ncc12 [Example 75]
IC50: < 20 nM

compound: C#Cc1cc(NC(=O)NC2CCCC2)nc2nc(Nc3cccc4c3CCN(C)C4)ncc12 [Example 88]
IC50: 100 to 1000 nM

compound: C#Cc1cc(N2C(=O)NCC2C(C)C)nc2nc(Nc3ccc(N4CCN(C)CC4)cc3)ncc12 (stereo not shown) [Example 64]
IC50: < 20 nM

compound: C#Cc1cc(OC)nc2nc(Nc3ccc(N4CCN(C)CC4)c(N(C)C)c3)ncc12 [Example 5]
IC50: 100 to 1000 nM

compound: C#Cc1cc(NC(=O)N(C)C2CCCC2)nc2nc(Nc3ccc(N4CCN(C)CC4)cc3)ncc12 [Example 74]
IC50: 100 to 1000 nM

Given the entry C#Cc1cc(NC(=O)NCc2cnco2)nc2nc(Nc3ccc(N4CCN(C)CC4)cc3)ncc12 [Example 45] , report its measured IC50.
20 to 100 nM

Param item = C#Cc1cc(NC(=O)NC2CCCC2)nc2nc(Nc3ccccc3N3CCCC(CS(C)(=O)=O)C3)ncc12 (stereo not shown) [Example 118] ; retrieve measured IC50.
1000 to 50000 nM

// IC50 lookup, key: C#Cc1cc(NC(=O)NC2CCCC2)nc2nc(Nc3ccc(N4CCN(C)CC4)c(NCC4CCC4)c3)ncc12 [Example 63]
20 to 100 nM

Fill blank: measured IC50 of the compound C#Cc1cc(N2C(=O)OC[C@H]2C(C)C)nc2nc(Nc3ccc(N4CCN(C)CC4)cc3)ncc12 [Example 69] is ____.
< 20 nM

Fill in: IC50 of C#Cc1cc(NC(=O)NC2CCCC2)nc2nc(Nc3ccc(N4CCN(C)CC4)cc3)ncc12 [Example 38] is ___
< 20 nM

Need IC50 of C#Cc1cc(NC(=O)NC2(C(F)(F)F)CCCC2)nc2nc(Nc3ccc(N4CCN(C)CC4)cc3)ncc12 [Example 60] , thanks.
< 20 nM

GET /values?readout=IC50&item= C#Cc1cc(NC(=O)NC2CCCC2)nc2nc(Nc3cccc(N(C)[C@H]4CC[C@H](CS(C)(=O)=O)CC4)c3)ncc12 [Example 121]
20 to 100 nM

For the compound C#Cc1cc(NS(C)(=O)=O)nc2c1=CNC(Nc1ccc(N(C)CCN(C)C)cc1)N=2 (stereo not shown) [Example 33] , what IC50 is on record?
20 to 100 nM

Recorded IC50 for C#Cc1cc(N2C(=O)OCC23CCCC3)nc2nc(Nc3ccc(N4CCN(C)CC4)cc3)ncc12 [Example 114] , please?
< 20 nM

Quick one: IC50 for C#Cc1cc(NC(=O)NC2CCCC2)nc2nc(Nc3ccc(S(C)(=O)=O)cc3)ncc12 [Example 81] ?
< 20 nM

Report IC50 for C#Cc1cc(NC(=O)NC2CCCC2)nc2nc(Nc3ccc(N4CCN(C5COC5)CC4)cc3)ncc12 [Example 76] please.
< 20 nM
